Target: T1, recombinant human IL-12 (rhIL-12) (human, UniProt P29459 23-219; P29460 23-328)
T1 chain 1: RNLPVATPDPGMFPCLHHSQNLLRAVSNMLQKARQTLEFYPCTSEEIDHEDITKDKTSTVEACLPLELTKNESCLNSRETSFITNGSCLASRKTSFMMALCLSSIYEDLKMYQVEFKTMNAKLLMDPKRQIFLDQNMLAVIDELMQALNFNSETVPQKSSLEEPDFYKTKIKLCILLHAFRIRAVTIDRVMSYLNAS
T1 chain 2: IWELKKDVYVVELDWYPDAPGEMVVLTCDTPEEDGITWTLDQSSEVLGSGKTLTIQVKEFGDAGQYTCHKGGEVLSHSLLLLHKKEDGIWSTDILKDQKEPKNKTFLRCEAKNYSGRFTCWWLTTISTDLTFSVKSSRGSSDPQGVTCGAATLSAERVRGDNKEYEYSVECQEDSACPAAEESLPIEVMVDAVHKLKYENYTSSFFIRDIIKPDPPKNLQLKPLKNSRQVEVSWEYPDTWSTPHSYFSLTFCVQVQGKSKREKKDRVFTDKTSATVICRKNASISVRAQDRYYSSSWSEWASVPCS
Assay: BIAcore
Assay metric: koff (s⁻¹)

P: SGGRSNIGSNNVK [Y61 L32 N]
Q: SGGRSNIGSETVK [Y61 L31 E]
I would appreciate it if you could say which entry, P or Q , has the lower koff value. The response must carry the label of the picked entry.
Q

P: SGGRSNIGSNDVK [Y61 L32 D]
Q: SGGRSNIGSNRVK [Y61 L32 R]
R: SGGRSNIGSDTVK [Y61 L31 D]
Task field, ranking: reported koff, descending order. Please list the labels according to the requested order.
Q, R, P
